# experimental_details: small-molecule microarray binders of probe aCHRDL2, primary screen, biochemical, biotinylated probe, 635/667 nm fluorescence (AID 1100)
# condition_set: higher = more signal
Classification field: class 1 = composite z-score at or over 0.5; class 0 = composite z-score under 0.5.

- compound: "CN(C)C(=O)[C@@]1(Cc2ccccc2N=[N+]=[N-])N=C(c2ccc(OCCCO)cc2)O[C@H]1c1ccccc1"
  label_value: "class 1"
- compound: "CC(C)OC(=O)CC(=O)CC(O)c1ccc([N+](=O)[O-])cc1 (centres undefined)"
  label_value: "class 1"
- compound: "C[C@]1(C(=O)NCC(F)(F)F)c2ccccc2C(=O)N(Cc2ccccc2)[C@H]1c1ccc(CO)cc1"
  label_value: "class 1"
- compound: "COc1ccc([Si](C)(C)[C@@H]2[C@@H](CC(=O)N3Cc4ccccc4C[C@H]3CO)O[C@]3(C(=O)N(c4ccccc4)c4ccccc43)[C@H]2C)cc1"
  label_value: "class 0"
- compound: "CC(C)[Si]1(C(C)C)OCc2cc(-c3ccc(-c4ccc(Cl)c(Cl)c4)o3)nc(CCc3ccccc3)c21"
  label_value: "class 0"
- compound: "CC(C)CNC(=O)[C@@H]1c2ccccc2C(=O)N(C2CCCCC2)[C@H]1c1ccc(CO)cc1"
  label_value: "class 1"
- compound: "CC(C)CNC(=O)[C@@]1(c2ccc([N+](=O)[O-])cc2)CC(=O)N(C2CCCCC2)[C@@H]1c1ccc(CO)cc1"
  label_value: "class 0"
- compound: "O=c1cccc(-c2ccc(F)cc2)o1"
  label_value: "class 0"
- compound: "COc1cc2c(cc1O)C(c1cccs1)N(Cc1sc3ccccc3c1Cl)CC2 (centres undefined)"
  label_value: "class 0"
